- Tested on: sugar beet
- ASSAY_INFO: Test B pre/postemergence sugar beet
- Type: in vivo, Beta vulgaris
- SETTINGS: Rate 500 g/ha, Postemergence; scale 0 to 10

[
  {
    "CHEMICAL_STRING": "CCN(CC)C(=O)n1oc(=O)n(Cc2ccccc2)c1=O",
    "Sugarbeets plant response rating": 0
  },
  {
    "CHEMICAL_STRING": "CC(C)N(C(=O)n1oc(=O)n(N(C)C)c1=O)c1ccc(F)cc1",
    "Sugarbeets plant response rating": 4
  },
  {
    "CHEMICAL_STRING": "Cc1nsc(C)c1-n1c(=O)on(C(=O)N(c2ccc(Cl)cc2)C(C)C)c1=O",
    "Sugarbeets plant response rating": 0
  },
  {
    "CHEMICAL_STRING": "CC(C)N(C(=O)n1oc(=O)n(Cc2ccco2)c1=O)c1ccc(Cl)cc1",
    "Sugarbeets plant response rating": 0
  },
  {
    "CHEMICAL_STRING": "CC(C)N(C(=O)n1oc(=O)n(CC(=O)C(C)(C)C)c1=O)c1ccc(F)cc1",
    "Sugarbeets plant response rating": 2
  }
]
